Source listed as paper PMC11401813.

test system: HeLa (cervical carcinoma); assay: Cytotoxicity, MTT assay, HeLa; type: cell-based, human; conditions: Homo sapiens, HeLa, read-out: IC50, HeLa
reported-property: IC50 (nM)
Give the quantity in nM, number only.

Problem: Can you look up the measured IC50 of C=CC(C)=CCC1(C)C(C)CC(O)C23C(=CC(OC(=O)C(C)CC)CC12)C(OC(C)=O)OC3OC(C)=O (stereo not shown) for me?
Solution: 800

###

target: aromatase (CYP19) (Homo sapiens); construct: purchased; experiment: Aromatase (CYP19) inhibition assay; type: biochemical; conditions: at a concentration of 12.5 µM
Sequence (P11511 whole entry): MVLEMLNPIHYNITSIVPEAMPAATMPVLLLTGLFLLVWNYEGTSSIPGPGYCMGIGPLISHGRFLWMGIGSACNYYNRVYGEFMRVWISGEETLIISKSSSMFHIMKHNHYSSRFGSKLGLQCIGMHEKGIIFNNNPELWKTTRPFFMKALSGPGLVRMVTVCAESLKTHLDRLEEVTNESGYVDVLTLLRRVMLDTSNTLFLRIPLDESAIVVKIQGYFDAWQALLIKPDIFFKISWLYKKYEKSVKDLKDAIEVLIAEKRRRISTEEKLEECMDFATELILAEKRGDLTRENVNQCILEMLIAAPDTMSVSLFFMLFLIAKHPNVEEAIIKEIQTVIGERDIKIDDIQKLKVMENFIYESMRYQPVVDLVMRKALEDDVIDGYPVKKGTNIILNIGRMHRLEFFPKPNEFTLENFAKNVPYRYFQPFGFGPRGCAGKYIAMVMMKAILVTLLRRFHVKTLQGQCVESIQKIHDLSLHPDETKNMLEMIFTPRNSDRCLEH
reported-property: inhibition at 12.5 µM (%)
Give the quantity in %, number only.

# example entries with known answers
compound: C=CC(=C)CC[C@]1(C)[C@H](C)C[C@H](OC)[C@@]23C(=C[C@H](OC(=O)[C@@H](C)CC)C[C@@H]12)[C@@H](OC(C)=O)O[C@H]3OC(C)=O
reported-property: inhibition at 12.5 µM
quantity-unit: %
assay-result: 18

compound: C=CC(=C)CC[C@]1(C)[C@H]2C[C@H](OC(=O)CC(C)C)C=C3[C@H](OC(C)=O)O[C@H](OC(C)=O)[C@@]32[C@H](OC)C[C@@H]1C
reported-property: inhibition at 12.5 µM
quantity-unit: %
assay-result: 31

compound: C=CC(=C)CC[C@]1(C)[C@H](C)C[C@H](OC)[C@@]23C(=C[C@H](OC(=O)[C@@H](C)CC)C[C@@H]12)[C@@H](OC)O[C@H]3OC(C)=O
reported-property: inhibition at 12.5 µM
quantity-unit: %
assay-result: 25

compound: C=CC(=C)CC[C@]1(C)[C@H](C)C[C@H](O)[C@@]23C(=C[C@H](OC(=O)[C@@H](C)CC)C[C@@H]12)[C@@H](OC(C)=O)O[C@H]3OC(C)=O
reported-property: inhibition at 12.5 µM
quantity-unit: %
assay-result: 0

compound: COc1cc([C@@H]2OC[C@@H]3[C@H]2CO[C@H]3c2cc(OC)c(O)c(OC)c2)cc(OC)c1O [Compound 19, (−)-syringaresinol]
reported-property: inhibition at 12.5 µM
quantity-unit: %
assay-result: 17

compound: C=CC(=C)CC[C@]1(C)[C@H](C)[C@@H](OC(=O)CC(C)C)[C@H](O)[C@@]23C(=C[C@H](OC(=O)CC(C)C)C[C@@H]12)[C@@H](OC(C)=O)O[C@H]3OC(C)=O
reported-property: inhibition at 12.5 µM
quantity-unit: %
assay-result: 0

compound: COC1=CC(=O)C=C(OC)C1(O)CC(C)=O
reported-property: inhibition at 12.5 µM
quantity-unit: %
assay-result: 0

# input for lookup
Problem: Can you look up the measured inhibition at 12.5 µM of C=CC(=C)CC[C@]1(C)[C@H](C)[C@@H](OC(C)=O)[C@H](OC(C)=O)[C@@]23C(=C[C@H](OC(=O)CC(C)C)C[C@@H]12)[C@@H](OC(C)=O)O[C@H]3OC(C)=O for me?
Solution: 15

###

Measured MBC, listed per entry.
system: Staphylococcus aureus (ATCC 6538); test: Antibacterial broth microdilution (MIC/MBC), S. aureus; assay type: cell-based; settings: ATCC6538

compound: C=CC(=C)CC[C@]1(C)[C@H](C)[C@@H](OC(C)=O)[C@H](OC(C)=O)[C@@]23C(=C[C@H](OC(=O)CC(C)C)C[C@@H]12)[C@@H](OC(C)=O)O[C@H]3OC(C)=O [Compound 3, Grewiifopene C]
study-system: Staphylococcus aureus (ATCC 6538)
MBC: > 200 µg/mL
//
compound: C=CC(=C)CC[C@]1(C)[C@H](C)[C@@H](OC(C)=O)[C@H](OC)[C@@]23C(=C[C@H](OC(=O)CC(C)C)C[C@@H]12)[C@@H](OC(C)=O)O[C@H]3OC(C)=O [Compound 2, Grewiifopene B]
study-system: Staphylococcus aureus (ATCC 6538)
MBC: > 200 µg/mL

Problem: Can you look up the measured MBC of C=CC(C)=CCC1(C)C(C)C(OC(C)=O)C(OC(C)=O)C23C(=CC(OC(=O)CC(C)C)CC12)C(OC(C)=O)OC3OC(C)=O (stereo not drawn) [Compound 15, Grewiifopene H] for me?
Solution: > 200 µg/mL

###

System: HepG2 (hepatocellular carcinoma)
Experiment: Cytotoxicity, MTT assay, HepG2
Type: cell-based, human
Conditions: Homo sapiens, HepG2, HepG2 cell line; MTT; mean ± s.d. (n = 3); read-out: IC50, HepG2
Description: The in vitro cytotoxicity assay toward a panel of human cancer cell lines of several clerodane diterpenoids has been well investigated. Thus, the isolates in adequate amounts were tested against MOLT-3 (acute lymphoblastic leukemia), HuCCA-1 (cholangiocarcinoma), HepG2 (hepatocellular carcinoma), A549 (lung adenocarcinoma), HeLa (cervical carcinoma), and MDA-MB-231 (triple negative breast cancer) cancer cell lines using the MTT and XTT methods. […]
Define the label as condition met when IC50 is strictly less than 10 µM and as condition not met in all remaining cases.

chemical-smiles: C=CC(=C)CC[C@]1(C)[C@H](C)[C@@H](OC(=O)CC(C)C)[C@H](O)[C@@]23C(=C[C@H](OC(=O)CC(C)C)C[C@@H]12)[C@@H](OC(C)=O)O[C@H]3OC(C)=O
discrete-label: condition met
//
chemical-smiles: C=CC(=C)CC[C@]1(C)[C@H](C)[C@@H](OC(C)=O)[C@H](OC)[C@@]23C(=C[C@H](OC(=O)CC(C)C)C[C@@H]12)[C@@H](OC(C)=O)O[C@H]3OC(C)=O
discrete-label: condition not met
//
chemical-smiles: C=CC(=C)CC[C@]1(C)[C@H](C)C[C@H](O)[C@@]23C(=C[C@H](OC(=O)[C@@H](C)CC)C[C@@H]12)[C@@H](OC(C)=O)O[C@H]3OC(C)=O
discrete-label: condition met

Problem: State whether 10 µM exceeds IC50 recorded for C=CC(=C)CC[C@]1(C)[C@H](C)[C@@H](OC(C)=O)[C@H](OC(C)=O)[C@@]23C(=C[C@H](OC(=O)CC(C)C)C[C@@H]12)[C@@H](OC(C)=O)O[C@H]3OC(C)=O .
Solution: condition not met

Problem: State whether 10 µM exceeds IC50 recorded for COC1=CC(=O)C=C(OC)C1(O)CC(C)=O .
Solution: condition not met

###

tested on: A549 (lung adenocarcinoma); test: Cytotoxicity, MTT assay, A549; type: cell-based, human; conditions: Homo sapiens, A549, A549 cell line, mean ± s.d. (n = 3)
Measured IC50, listed per entry.
Give the quantity in µM, number only.

# example entries with known answers
compound: C=CC(=C)CC[C@]1(C)[C@H](C)[C@@H](OC(C)=O)[C@H](OC)[C@@]23C(=C[C@H](OC(=O)CC(C)C)C[C@@H]12)[C@@H](OC(C)=O)O[C@H]3OC(C)=O [Compound 2, Grewiifopene B]
quantity-unit: µM
IC50: 7.8
//
compound: C=CC(=C)CC[C@]1(C)[C@H](C)C[C@H](OC)[C@@]23C(=C[C@H](OC(=O)CC(C)C)C[C@@H]12)[C@@H](OC)O[C@H]3OC(C)=O [Compound 10, kurzipene A]
quantity-unit: µM
IC50: 8.2

# input for lookup
Problem: Can you look up the measured IC50 of C=CC(C)=CCC1(C)C(C)C(OC(C)=O)C(OC(C)=O)C23C(=CC(OC(=O)CC(C)C)CC12)C(OC(C)=O)OC3OC(C)=O (stereo not drawn) [Compound 15, Grewiifopene H] for me?
Solution: 9.2
